Measured binding signal of individual entries
Molecular target: MBP-FoxP3dN (Mus musculus, UniProt Q99JB6 188-423)
Sequence: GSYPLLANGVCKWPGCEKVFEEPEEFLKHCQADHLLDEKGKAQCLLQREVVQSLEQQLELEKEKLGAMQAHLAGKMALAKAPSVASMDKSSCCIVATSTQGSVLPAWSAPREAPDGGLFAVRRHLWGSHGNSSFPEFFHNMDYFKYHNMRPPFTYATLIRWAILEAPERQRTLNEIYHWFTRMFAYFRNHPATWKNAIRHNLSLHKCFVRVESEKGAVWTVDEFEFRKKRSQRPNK
Assay: PD-seq (MBP pull-down with sequencing); 20 mM Tris-HCl pH 7.5, 100 mM NaCl, 1.5 mM MgCl2, 0.4 uM protein, 0.1 uM dsDNA library, 30 min, room temperature, amylose pull-down; high values mean tight binding
Details: protein: recombinant; tags: His6-MBP; chain copies: 2; dsDNA, one strand shown
The full ranking holds about 16,000 sequences; the median of “rpm ratio (pull-down/input)” is about 0.5, and the highest 2% start at about 5.5. The list comes from a sample in which the highest values are over-represented; it also holds close analogues and randomly drawn sequences.

GATGATTGTTCTCCCAGCTGATGAATTGACGCATTCGAGTAAACAAATTTTCCTAATCTTTCTGTTCAAGCGCCATCTAC: 5.74 RPM ratio (pull-down/input)
GATGATTGTTCTCCCAGCTGATGAATTAGATGTGTCGAGTAAACAAATTTTCCTAATCTTTCTGTTCAAGCGCCATCTAC: 2.71 RPM ratio (pull-down/input)
GATGATTGTTCTCCCAGCTGATGAATTATATATATCGAGTAAACAAATTTTCCTAATCTTTCTGTTCAAGCGCCATCTAC: 1.27 RPM ratio (pull-down/input)
GATGATTGTTCTCCCAGCTGATGAATTTTTGGAGTCGAGTAAACAAATTTTCCTAATCTTTCTGTTCAAGCGCCATCTAC: 0.23 RPM ratio (pull-down/input)
GATGATTGTTCTCCCAGCTGATGAATTGAATAGCTCGAGTAAACAAATTTTCCTAATCTTTCTGTTCAAGCGCCATCTAC: 0.346 RPM ratio (pull-down/input)
GATGATTGTTCTCCCAGCTGATGAATTTCGCAACTCGAGTAAACAAATTTTCCTAATCTTTCTGTTCAAGCGCCATCTAC: 5.53 RPM ratio (pull-down/input)
GATGATTGTTCTCCCAGCTGATGAATTTGACGCATCGAGTAAACAAATTTTCCTAATCTTTCTGTTCAAGCGCCATCTAC: 1.22 RPM ratio (pull-down/input)
GATGATTGTTCTCCCAGCTGATGAATTTGCCCTGTCGAGTAAACAAATTTTCCTAATCTTTCTGTTCAAGCGCCATCTAC: 0.487 RPM ratio (pull-down/input)
GATGATTGTTCTCCCAGCTGATGAATTAGAATAGTCGAGTAAACAAATTTTCCTAATCTTTCTGTTCAAGCGCCATCTAC: 0.342 RPM ratio (pull-down/input)
GATGATTGTTCTCCCAGCTGATGAATTTCGAACCTCGAGTAAACAAATTTTCCTAATCTTTCTGTTCAAGCGCCATCTAC: 0.301 RPM ratio (pull-down/input)

Ask: Enter reported binding signal observed with MBP-FoxP3dN (Mus musculus, UniProt Q99JB6 188-423) for GATGATTGTTCTCCCAGCTGATGAATTGGTAGCTTCGAGTAAACAAATTTTCCTAATCTTTCTGTTCAAGCGCCATCTAC
Reply: 0.798 RPM ratio (pull-down/input)

Ask: And for GATGATTGTTCTCCCAGCTGATGAATTCCTTAGCTCGAGTAAACAAATTTTCCTAATCTTTCTGTTCAAGCGCCATCTAC ?
Reply: 0.222 RPM ratio (pull-down/input)

Ask: And for GATGATTGTTCTCCCAGCTGATGAATTTCCTGTGTCGAGTAAACAAATTTTCCTAATCTTTCTGTTCAAGCGCCATCTAC ?
Reply: 0.352 RPM ratio (pull-down/input)

Ask: And for GATGATTGTTCTCCCAGCTGATGAATTTAATACATCGAGTAAACAAATTTTCCTAATCTTTCTGTTCAAGCGCCATCTAC ?
Reply: 0.619 RPM ratio (pull-down/input)

Ask: And for GATGATTGTTCTCCCAGCTGATGAATTGTTCGCATCGAGTAAACAAATTTTCCTAATCTTTCTGTTCAAGCGCCATCTAC ?
Reply: 1.1 RPM ratio (pull-down/input)

Ask: And for GATGATTGTTCTCCCAGCTGATGAATTACGTTGGTCGAGTAAACAAATTTTCCTAATCTTTCTGTTCAAGCGCCATCTAC ?
Reply: 1.3 RPM ratio (pull-down/input)

Ask: And for GATGATTGTTCTCCCAGCTGATGAATTCTAGCTGTCGAGTAAACAAATTTTCCTAATCTTTCTGTTCAAGCGCCATCTAC ?
Reply: 0.392 RPM ratio (pull-down/input)

Ask: And for GATGATTGTTCTCCCAGCTGATGAATTGCCTGTGTCGAGTAAACAAATTTTCCTAATCTTTCTGTTCAAGCGCCATCTAC ?
Reply: 0.881 RPM ratio (pull-down/input)

Ask: And for GATGATTGTTCTCCCAGCTGATGAATTGTACCCATCGAGTAAACAAATTTTCCTAATCTTTCTGTTCAAGCGCCATCTAC ?
Reply: 0.472 RPM ratio (pull-down/input)

Ask: And for GATGATTGTTCTCCCAGCTGATGAATTCTTAAACTCGAGTAAACAAATTTTCCTAATCTTTCTGTTCAAGCGCCATCTAC ?
Reply: 0.267 RPM ratio (pull-down/input)

Ask: And for GATGATTGTTCTCCCAGCTGATGAATTGCCTTTGTCGAGTAAACAAATTTTCCTAATCTTTCTGTTCAAGCGCCATCTAC ?
Reply: 0.946 RPM ratio (pull-down/input)

Ask: And for GATGATTGTTCTCCCAGCTGATGAATTTTGCCTGTCGAGTAAACAAATTTTCCTAATCTTTCTGTTCAAGCGCCATCTAC ?
Reply: 5.62 RPM ratio (pull-down/input)

Ask: And for GATGATTGTTCTCCCAGCTGATGAATTAGCCTCCTCGAGTAAACAAATTTTCCTAATCTTTCTGTTCAAGCGCCATCTAC ?
Reply: 1.57 RPM ratio (pull-down/input)
